assay: Distribution coefficient between octanol and buffer, log D of the compound in pH 7.4 buffer by CAMDIS assay; format: physicochemical
quantity_name: logD
// no unit, no text: just the number

# molecular_string, numeric_result
data = [
    ("CCNc1cc(F)cc2c1[nH]c1ncc(-c3cncc(C(=O)NO)c3)c(-n3ccc(C(F)(F)F)n3)c12", 3.05),
    ("CCNc1cc(F)cc2c1[nH]c1ncc(-c3cncc(C(=O)O)c3)c(-n3ccc(C(F)(F)F)n3)c12", 1.9),
    ("CCNc1cc(F)cc2c1[nH]c1ncc(-c3cncc(C#N)c3)c(-n3ccc(C(F)(F)F)n3)c12", 3.63),
]

What does the data say about its logD? Entry: "CCNc1cc(F)cc2c1[nH]c1ncc(-c3cncc(C(=O)NOC)c3)c(-n3ccc(C(F)(F)F)n3)c12" 3.41

----------
assay: in vitro; details: mouse, liver microsomes
Description: Intrinsic clearance in mouse liver microsomes preincubated for 10 mins followed by NADPH regenerating system addition and measured up to 30 mins by LC/MS-MS analysis
quantity_name: CLint scaled at 0.5 h (mL/min/kg)
Expressed in mL/min/kg, but write only the number.

# compound, CLint scaled at 0.5 h / mL/min/kg
rows = [
    ("CCNc1cc(F)cc2c1[nH]c1ncc(-c3cnc(OC)nc3)c(-n3ccc(C(F)(F)F)n3)c12", 20.2),
    ("CNc1cc(F)cc2c1[nH]c1ncc(-c3cnc(C4(C(=O)O)CC4)nc3)c(-n3ccc(C(F)(F)F)n3)c12", 22.9),
    ("CCNc1cc(F)cc2c1[nH]c1ncc(-c3cnc(N)nc3)c(-n3ccc(C(F)(F)F)n3)c12", 25.9),
    ("CCNc1cc(F)cc2c1[nH]c1ncc(-c3cncc(C#N)c3)c(-n3ccc(C(F)(F)F)n3)c12", 61.8),
    ("CCNc1cc(F)cc2c1[nH]c1ncc(-c3cncnc3)c(-n3ccc(C(F)(F)F)n3)c12", 76.1),
    ("CCNc1cc(F)cc2c1[nH]c1ncc(-c3cnc([C@H](C)O)nc3)c(-n3ccc(C(F)(F)F)n3)c12", 52.8),
    ("CCNc1cc(F)cc2c1[nH]c1ncc(-c3cnc(CC(=O)O)nc3)c(-n3ccc(C(F)(F)F)n3)c12", 44),
    ("CCNc1cc(F)cc2c1[nH]c1ncc(-c3cnc(C4(C(=O)O)CC4)nc3)c(-n3ccc(C(F)(F)F)n3)c12", 43.8),
    ("CCNc1cc(F)cc2c1[nH]c1ncc(-c3cnc(N4CCOCC4)nc3)c(-n3ccc(C(F)(F)F)n3)c12", 24.2),
    ("CCNc1cc(F)cc2c1[nH]c1ncc(-c3cncc(C#N)c3)c(-n3cc(CN)c(C(F)(F)F)n3)c12", 47),
]

What does the data say about its CLint scaled at 0.5 h? Entry: "CCNc1cc(F)cc2c1[nH]c1ncc(-c3cncc(C#N)c3)c(-n3ncc4c3CCNC4)c12" 52.1

What does the data say about its CLint scaled at 0.5 h? Entry: CCNc1cc(F)cc2c1[nH]c1ncc(-c3cnc(NC4CCNC4)nc3)c(-n3ccc(C(F)(F)F)n3)c12 (stereo not drawn) 60.1

What does the data say about its CLint scaled at 0.5 h? Entry: "CCNc1cc(F)cc2c1[nH]c1ncc(-c3cnc(C(N)=O)nc3)c(-n3ccc(C(F)(F)F)n3)c12" 55.5

----------
tested on: Escherichia coli; assay: microbe, parasite or virus in culture; details: ATCC 29213
Description: Antibacterial activity against Escherichia coli ATCC 29213 assessed as reduction in microbial growth preincubated for 20 to 24 hrs followed by subculture in absence of compound and measured on day 4 CLSI based broth microdilution susceptibility method
Recorded measurements of MIC, one per entry

These solved cases illustrate the format of a correct answer.
# molecule, result
records = [
    ("CCNc1cc(F)cc2c1[nH]c1ncc(-c3cnc([C@@H](C)O)nc3)c(-n3ccc(C(F)(F)F)n3)c12", "< 0.25 µg/mL"),
    ("CCNc1cc(F)cc2c1[nH]c1ncc(-c3cncc(C#N)c3)c(-n3ccc(CN)n3)c12", "2 µg/mL"),
    ("CCNc1cc(F)cc2c1[nH]c1ncc(-c3cnc4ccnn4c3)c(-n3ccc(C(F)(F)F)n3)c12", "0.31 µg/mL"),
    ("CCNc1cc(F)cc2c1[nH]c1ncc(-c3cncc(C(=O)O)c3)c(-n3ccc(C(F)(F)F)n3)c12", "1 µg/mL"),
    ("CCNc1cc(F)cc2c1[nH]c1ncc(-c3cncc(Cc4ncc[nH]4)c3)c(-n3ccc(C(F)(F)F)n3)c12", "< 0.057 µg/mL"),
    ("CCNc1cc(F)cc2c1[nH]c1ncc(-c3cnc([C@H](C)O)nc3)c(-n3ccc(C(F)(F)F)n3)c12", "< 0.25 µg/mL"),
    ("CCNc1cc(F)cc2c1[nH]c1ncc(-c3cnc(NC4CCNC4)nc3)c(-n3ccc(C(F)(F)F)n3)c12 (stereo not drawn)", "0.25 µg/mL"),
    ("CCNc1cc(F)cc2c1[nH]c1ncc(-c3cncc(C#N)c3)c(-n3ccc(C(C)C)n3)c12", "< 0.25 µg/mL"),
    ("CCNc1cc(F)cc2c1[nH]c1ncc(-c3cnc(N)nc3)c(-n3ccc(C(F)(F)F)n3)c12", "0.63 µg/mL"),
    ("CCNc1cc(F)cc2c1[nH]c1ncc(-c3cncc(C#N)c3)c(-n3ccc(C(F)(F)F)n3)c12", "< 0.016 µg/mL"),
]

What MIC appears in the records for this molecule with Escherichia coli? "CCNc1cc(F)cc2c1[nH]c1ncc(-c3cnc4c(c3)c(=O)c(C(=O)O)cn4C)c(-n3ccc(C(F)(F)F)n3)c12" < 0.125 µg/mL

What MIC appears in the records for this molecule with Escherichia coli? "CCNc1cc(F)cc2c1[nH]c1ncc(-c3cnc(OCC(C)(C)C(=O)O)nc3)c(-n3ccc(C(F)(F)F)n3)c12" < 0.016 µg/mL

What MIC appears in the records for this molecule with Escherichia coli? "CCNc1cc(F)cc2c1[nH]c1ncc(-c3cncc(CO)c3)c(-n3ccc(C(F)(F)F)n3)c12" < 0.016 µg/mL

What MIC appears in the records for this molecule with Escherichia coli? "CCNc1cc(F)cc2c1[nH]c1ncc(-c3cnc(C(C)(C)O)nc3)c(-n3ccc(C(F)(F)F)n3)c12" < 0.25 µg/mL

What MIC appears in the records for this molecule with Escherichia coli? "CCNc1cc(F)cc2c1[nH]c1ncc(-c3cnc(N4CCOCC4)nc3)c(-n3ccc(C(F)(F)F)n3)c12" < 0.016 µg/mL

What MIC appears in the records for this molecule with Escherichia coli? "CCNc1cc(F)cc2c1[nH]c1ncc(-c3cncc(C#N)c3)c(-c3nc(C(F)(F)F)cs3)c12" < 0.016 µg/mL

What MIC appears in the records for this molecule with Escherichia coli? "CCNc1cc(F)cc2c1[nH]c1ncc(-c3cncc(C(=O)NO)c3)c(-n3ccc(C(F)(F)F)n3)c12" < 0.125 µg/mL
